meta.source: paper PMC7143549

System: p-AKT in HT-29 cells
Assay: Western blot of phosphorylated AKT
Type: cell-based, human
Conditions: 24 h; 10 and 20 μg/mL for 1, 2, 5, 6, 7, 8; 30 and 60 μg/mL for 3 and 4

# compound, target.system, expression of p-AKT protein vs control
records = [
    ("COc1c(C)cc(O)cc1C/C=C(\\C)CC(=O)/C=C(/C)CCCC(C)C(=O)/C=C/C(C)(C)O (stereo not drawn) [Compound 5, 6-cis-amentadione-1′-methyl ether]", "p-AKT in HT-29 cells", "no significant reduction"),
    ("COc1c(C)cc(O)cc1C/C=C(\\C)CC(=O)/C=C(\\C)CCCC(C)C(=O)/C=C/C(C)(C)O (centres unmarked) [Compound 6, amentadione-1′-methyl ether]", "p-AKT in HT-29 cells", "no significant reduction"),
]

====

Tested on: p-ERK1/2 in HT-29 cells
Assay: Western blot of phosphorylated ERK1/2
Type: cell-based, human
Details: 24 h; 10 and 20 μg/mL
measurement.label: p-ERK1/2 level vs control

# compound, recorded.result
records = [
    ("COc1c(C)cc(O)cc1/C=C/C(C)(O)CC(=O)/C=C(/C)CCCC(C)C(=O)/C=C/C(C)(C)O (stereo not drawn)", "significantly reduced"),
    ("COc1c(C)cc(O)cc1C/C=C(\\C)CC(=O)/C=C(/C)CCCC(C)C(=O)/C=C/C(C)(C)O (stereo not drawn) [Compound 5, 6-cis-amentadione-1′-methyl ether]", "significantly reduced"),
    ("COc1c(C)cc(O)cc1C/C=C(\\C)CC(=O)/C=C(\\C)CCCC(C)(O)C(=O)/C=C/C(C)(C)O (stereo not drawn) [Compound 2, 11-hydroxy-1′-O-methylamentadione]", "significantly reduced"),
]

====

Test system: HT-29 colon cancer cells
Experiment: Cell cycle analysis by flow cytometry (PI)
Format: cell-based, human
Settings: 24 h; 30 μg/mL of 1, 2, 5, 6, 7, 8 and 90 μg/mL of 3 and 4 (Figure 4B)
measurement.label: accumulation of cells at the G2/M phase (cell cycle arrest, words)

# molecule, target.system, recorded.result
measured = [
    ("COc1c(C)cc(O)cc1C/C=C(\\C)CC(=O)/C=C(\\C)CCCC(C)C(=O)/C=C/C(C)(C)O (centres unmarked)", "HT-29 colon cancer cells", "not significant"),
    ("COc1c(C)cc(O)cc1C/C=C(\\C)CC(=O)/C=C(/C)CCCC(C)C(=O)/C=C/C(C)(C)O (stereo not drawn) [Compound 5, 6-cis-amentadione-1′-methyl ether]", "HT-29 colon cancer cells", "significant"),
    ("COc1c(C)cc(O)cc1C/C=C(\\C)CC(=O)/C=C(\\C)CCCC(C)=O", "HT-29 colon cancer cells", "significant"),
    ("COc1c(C)cc(O)cc1C/C=C(\\C)CC(=O)/C=C(\\C)CCCC(C)(O)C(=O)/C=C/C(C)(C)O (centres unmarked) [Compound 2, 11-hydroxy-1′-O-methylamentadione]", "HT-29 colon cancer cells", "significant"),
    ("COc1c(C)cc(O)cc1/C=C/C(C)(O)CC(=O)/C=C(/C)CCCC(C)C(=O)/C=C/C(C)(C)O (centres unmarked)", "HT-29 colon cancer cells", "significant"),
    ("COc1c(C)cc(O)cc1C/C=C(\\C)CC(=O)/C=C(/C)CCCC(C)=O", "HT-29 colon cancer cells", "significant"),
    ("COc1c(C)cc(O)cc1/C=C/C(C)(O)CC(=O)/C=C(\\C)CCCC(C)C(=O)/C=C/C(C)(C)O (centres unmarked)", "HT-29 colon cancer cells", "not significant"),
]

====

Test system: p-ERK1/2 in HT-29 cells
Experiment: Western blot of phosphorylated ERK1/2
Type: cell-based, human
Details: 24 h; 10 and 20 μg/mL
Procedure: Cells were cultured to 80% confluence at 37 °C. […] The protein concentrations were determined using Bio-Rad Protein Assay (BioRad, Richmond, CA, USA), according to the manufacturer’s instructions. […]
measurement.label: p-ERK1/2 level vs control

# compound, recorded.result
rows = [
    ("COc1c(C)cc(O)cc1/C=C/C(C)(O)CC(=O)/C=C(\\C)CCCC(C)C(=O)/C=C/C(C)(C)O (stereo not drawn)", "significantly reduced"),
    ("COc1c(C)cc(O)cc1C/C=C(\\C)CC(=O)/C=C(/C)CCCC(C)(O)C(=O)/C=C/C(C)(C)O (stereo not drawn)", "significantly reduced"),
    ("COc1c(C)cc(O)cc1C/C=C(\\C)CC(=O)/C=C(\\C)CCCC(C)C(=O)/C=C/C(C)(C)O (stereo not drawn)", "significantly reduced"),
]
